Experiment: Saturation solubility of EAPB0503 in solvents by HPLC
Assay type: physicochemical
Conditions: phosphate buffered saline, aqueous buffer, thermodynamic from solid
observationType: solubility

Form field solubility, entry CNc1nc2ccccc2n2c(-c3cccc(OC)c3)cnc12 : < 100 µg/mL
